B1: Chromodomain-helicase-DNA-binding protein 4, residues 365 to 417; numbered along this chain, Q14839 (parent)
chain: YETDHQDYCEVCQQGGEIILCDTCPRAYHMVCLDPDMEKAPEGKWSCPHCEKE

variants of: B1; experiment: abundance fitness (aPCA) (normalised: wild type 0, dead -1); higher = more abundant; growth selection in yeast, the domain comes from the species named; settings: Homo sapiens
Classification by abundance fitness | ranges: low (below -0.2), middle (-0.2 to below -0.02), high (-0.02 or more)

[[record]]
residue_change = "K52H"
label_value = "high"

[[record]]
residue_change = "G15Q"
label_value = "middle"

[[record]]
residue_change = "E17L"
label_value = "low"

[[record]]
residue_change = "I19Q"
label_value = "middle"

[[record]]
residue_change = "I19R"
label_value = "high"

[[record]]
residue_change = "G16T"
label_value = "high"

[[record]]
residue_change = "E10L"
label_value = "high"

[[record]]
residue_change = "C9P"
label_value = "low"

[[record]]
residue_change = "H5C"
label_value = "middle"

[[record]]
residue_change = "A27W"
label_value = "low"

[[record]]
residue_change = "Y8A"
label_value = "middle"

[[record]]
residue_change = "E10R"
label_value = "middle"

[[record]]
residue_change = "C47S"
label_value = "low"

[[record]]
residue_change = "H49C"
label_value = "high"

[[record]]
residue_change = "R26H"
label_value = "low"

[[record]]
residue_change = "G43F"
label_value = "low"

[[record]]
residue_change = "S46I"
label_value = "low"

[[record]]
residue_change = "L33A"
label_value = "high"

[[record]]
residue_change = "D7F"
label_value = "low"

[[record]]
residue_change = "H49Y"
label_value = "middle"

[[record]]
residue_change = "A27P"
label_value = "low"

[[record]]
residue_change = "C9R"
label_value = "low"

[[record]]
residue_change = "G16E"
label_value = "high"

[[record]]
residue_change = "C47G"
label_value = "low"

[[record]]
residue_change = "E51G"
label_value = "high"

[[record]]
residue_change = "L20C"
label_value = "middle"

[[record]]
residue_change = "K44M"
label_value = "middle"

[[record]]
residue_change = "P41E"
label_value = "high"

[[record]]
residue_change = "I18Q"
label_value = "middle"

[[record]]
residue_change = "Q14G"
label_value = "high"

[[record]]
residue_change = "P48V"
label_value = "middle"

[[record]]
residue_change = "Y8Q"
label_value = "high"

[[record]]
residue_change = "V31Y"
label_value = "high"

[[record]]
residue_change = "E53S"
label_value = "middle"

[[record]]
residue_change = "H29F"
label_value = "low"

[[record]]
residue_change = "A40E"
label_value = "middle"

[[record]]
residue_change = "V31M"
label_value = "low"

[[record]]
residue_change = "I19A"
label_value = "high"

[[record]]
residue_change = "A40C"
label_value = "middle"

[[record]]
residue_change = "M37V"
label_value = "high"

[[record]]
residue_change = "P25Y"
label_value = "middle"

[[record]]
residue_change = "G15I"
label_value = "low"

[[record]]
residue_change = "S46D"
label_value = "middle"

[[record]]
residue_change = "W45H"
label_value = "middle"

[[record]]
residue_change = "D36N"
label_value = "high"

[[record]]
residue_change = "Q6H"
label_value = "low"

